Tested on: subject's mood
Assay: Actimood scoring (correlation of EmoChar and IRT values)
Type: in vivo, human
Settings: joyful mood (Table 6); scale 0 (low impact) to 3 (high impact)
Observed Property: Actimood score
Could you keep your reply to the number by itself?

Answered examples (5):
Asked: So what's the measured Actimood score for this one? C=CCOC(=O)CCC1CCCCC1 [ALLYL CYCLOHEXYL PROPIONATE, allyl 3-cyclohexylpropanoate]
Given back: 3

Asked: So what's the measured Actimood score for this one? Cc1ccc2c(c1)OCC(=O)CO2 [CALONE, 7-methyl-1,5-benzodioxepin-3-one]
Given back: 3

Asked: So what's the measured Actimood score for this one? CC1(C)CCCC2(C)C1CCC1(C)OCCC12 (stereo not shown) [AMBROXIDE]
Given back: 3

Asked: So what's the measured Actimood score for this one? CC(=O)C1(C)CC2=C(CCCC2(C)C)CC1C (stereo not shown)
Given back: 2

Asked: So what's the measured Actimood score for this one? CCCC(C)C(=O)OCC (stereo not shown) [MANZANATE, ethyl-2-methylpentanoate]
Given back: 3

Field: next molecule
Asked: So what's the measured Actimood score for this one? CCCCCCC1OC(=O)CC1C (stereo not shown) [APRIFLOREN ®, 5-Hexyldihydro-4-methylfuran-2(3H)-one]
Given back: 2

Source: patent US20250302728A1
